- target entity: Insulin-degrading enzyme (Homo sapiens)
- assay summary: exo-site inhibitors of human IDE, primary screen, biochemical, fluorescence anisotropy, probe displacement (AID 1259349);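 note: His-tagged human IDE residues 42-1019 made in E. coli with 30 nM FL-6b probe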
- test context: purified IDE, FL-6b probe fluorescence polarization; at 20 µM
Among all 17,000 compounds or so, about 1,100 (6.5%) were called active.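 Rule for the calls: active = z-score of -3 or lower, meaning strong loss of probe binding signal; inactive = the rest.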 The full list was thinned out, with actives kept by preference.
Just give me one of these, please: Y for active, N for inactive

Below are worked cases with known answers.
molecule | assigned class
O=S(=O)(c1ccccc1F)N1[C@@H]2CNC[C@H]1C2c1ccc(-c2cncnc2)cc1 (stereo partly specified) | N
COc1ccccc1-c1ccc2c(c1)O[C@@H](CN(C)CC1CCOCC1)[C@H](C)CN([C@@H](C)CO)S2(=O)=O | N
COc1ccc(-c2ccccc2[C@H]2[C@@H](CO)N(C(=O)c3cccnc3)[C@H]2C#N)cc1 | N
CCCC#Cc1ccc([C@@H]2[C@H](CO)N3CCCCN(S(=O)(=O)c4ccccc4F)C[C@@H]23)cc1 | Y

Q: Name the outcome recorded for COc1ccccc1C#Cc1ccc([C@H]2[C@H](CO)N3CCCCN(C(=O)C4CCC4)C[C@@H]23)cc1 in the assay.
A: Y

Q: Name the outcome recorded for Cc1cccc(-c2ccc([C@H]3[C@H](CO)N4CCCCN(S(=O)(=O)c5cn(C)cn5)C[C@@H]34)cc2)c1 in the assay.
A: Y

Q: Name the outcome recorded for O=C1C[C@@H](c2ccccc2)C(=O)N[C@H](c2ccc(F)cc2)C/C=C\CCN1 in the assay.
A: N

Q: Name the outcome recorded for CCCC#Cc1ccc([C@H]2[C@H](CO)N3CCCCN(C(=O)c4ccc5c(c4)OCO5)C[C@@H]23)cc1 in the assay.
A: N

Q: Name the outcome recorded for CCCC#Cc1ccc([C@H]2[C@@H](CO)N3C(=O)CN(C(=O)c4ccncc4)C[C@@H]23)cc1 in the assay.
A: N

Q: Name the outcome recorded for O=S(=O)(c1ccccc1)N1CCCCN2[C@H](C1)[C@H](c1ccc(-c3ccccc3)cc1)[C@@H]2CO in the assay.
A: N

Q: Name the outcome recorded for CS(=O)(=O)Nc1ccc2c(c1)[C@@H]1C[C@H](CC(=O)NCc3cc(F)ccc3F)O[C@@H](CO)[C@@H]1O2 in the assay.
A: N

Q: Name the outcome recorded for O=C(c1cccc(F)c1)N1CC(=O)N2[C@H](C1)[C@@H](c1ccc(C#Cc3ccc(F)cc3)cc1)[C@@H]2CO in the assay.
A: N

Q: Name the outcome recorded for COc1cccc(C(=O)Nc2ccc3c(c2)C(=O)N(C)[C@H]2CC[C@@H](CC(=O)N[C@H](C)c4ccccc4)O[C@H]2CO3)c1 in the assay.
A: Y

Q: Name the outcome recorded for CCCN1C[C@@H](C)[C@@H](OC)CN(C)C(=O)c2cc(NC(=O)C3CCC3)ccc2OC[C@H]1C in the assay.
A: N

Q: Name the outcome recorded for O=C(c1ccncc1)N1CCCCN2[C@H](CO)[C@@H](c3ccc(C#Cc4ccccn4)cc3)[C@H]2C1 in the assay.
A: N

Q: Name the outcome recorded for CN(C)CC(=O)N1[C@H](C#N)[C@H](c2ccccc2-c2cccc(C(=O)N(C)C)c2)[C@@H]1CO in the assay.
A: N
